Molecular target: CHK1 (Homo sapiens)
Sequence (O14757 1-476): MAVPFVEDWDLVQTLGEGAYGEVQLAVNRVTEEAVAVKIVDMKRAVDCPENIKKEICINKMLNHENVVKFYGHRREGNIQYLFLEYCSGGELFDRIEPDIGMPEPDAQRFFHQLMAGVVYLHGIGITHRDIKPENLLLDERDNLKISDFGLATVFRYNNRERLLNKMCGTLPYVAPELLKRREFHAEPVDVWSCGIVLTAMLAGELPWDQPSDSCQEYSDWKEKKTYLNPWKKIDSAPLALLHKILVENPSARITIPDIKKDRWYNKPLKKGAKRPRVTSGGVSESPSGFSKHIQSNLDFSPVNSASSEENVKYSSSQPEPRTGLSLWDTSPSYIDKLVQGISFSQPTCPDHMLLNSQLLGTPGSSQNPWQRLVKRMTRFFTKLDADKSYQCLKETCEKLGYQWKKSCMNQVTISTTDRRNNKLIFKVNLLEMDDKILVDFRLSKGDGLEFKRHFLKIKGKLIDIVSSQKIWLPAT
Experiment: CHK1 kinase function inhibition assay (DELFIA, phosphorylation of a CDC25C peptide)
Details: CHK1 1 nM, ATP 30 μM, 30 minutes at room temperature
pIC50: −log10 of the molar value.
Parameter: pIC50. Scope: all listed entries.

Record lookup: for CHK1 (Homo sapiens), what pIC50 belongs to `N#Cc1cnc(Nc2cc(N[C@H]3CCNC3)ncn2)cn1` ?
5.00 to 6.00

Record lookup: for CHK1 (Homo sapiens), what pIC50 belongs to N#Cc1cnc(Nc2cc(NCC3CCCNC3)c(N3CCC(O)C3)cn2)cn1 (stereo in doubt) ?
≥ 7.00

====

Parameter: IC50. Scope: all listed entries.
target: CHK1 (Homo sapiens, UniProt O14757); experiment: CHK1 kinase function inhibition assay (DELFIA, phosphorylation of a CDC25C peptide); settings: CHK1 1 nM, ATP 30 μM, 30 minutes at room temperature

The following compounds have reported results that may help.
1) COc1ccc(-c2cnc(Nc3cnc(C#N)cn3)cc2NCC2(F)CCNCC2)cc1 [Compound Y-136]: ≤ 100 nM
2) COc1ccc(-c2cnc(Nc3cnc(C#N)cn3)cc2NCCC2CNCCO2)cc1 (centres unmarked) [Compound Y-137]: ≤ 100 nM
3) c1cnc(Nc2cc(NCC3CCNCC3)ncn2)cn1 [Compound Z-004]: 1000 to 10000 nM
4) NCCCCNc1cc(Nc2cnccn2)ncn1 [Compound Z-006]: 1000 to 10000 nM
5) COC(=O)c1cnc(Nc2cnc(C#N)cn2)cc1NC1CCCNCC1 (centres unmarked) [Compound Y-076]: ≤ 100 nM
6) COC/C=C/c1cnc(Nc2cnc(C#N)cn2)cc1NCC1CCNCC1 [Compound Y-139]: ≤ 100 nM

Record lookup: for CHK1 (Homo sapiens, UniProt O14757), what IC50 belongs to COc1nc(Nc2cc(NCC3CCNCC3)ncn2)cnc1C#N [Compound Z-046] ?
1000 to 10000 nM

Record lookup: for CHK1 (Homo sapiens, UniProt O14757), what IC50 belongs to COc1ccccc1NC(=O)c1cnc(Nc2cnc(C#N)cn2)cc1NCC1CCNCC1 [Compound Y-097] ?
100 to 1000 nM

Record lookup: for CHK1 (Homo sapiens, UniProt O14757), what IC50 belongs to N#Cc1cnc(Nc2cc(NCC3CCNCC3)c(-c3ccc(OCCO)cc3)cn2)cn1 [Compound Y-129] ?
≤ 100 nM

Record lookup: for CHK1 (Homo sapiens, UniProt O14757), what IC50 belongs to N#Cc1cnc(Nc2cc(NCC3CCCNC3)c(-n3ccc(CO)c3)cn2)cn1 (centres unmarked) [Compound Y-063] ?
≤ 100 nM

Record lookup: for CHK1 (Homo sapiens, UniProt O14757), what IC50 belongs to COc1ccc(CCC(=O)Nc2cnc(Nc3cnc(C#N)cn3)cc2NCC2CCNCC2)cc1 [Compound Y-012] ?
1000 to 10000 nM

Record lookup: for CHK1 (Homo sapiens, UniProt O14757), what IC50 belongs to CC(C)NC(=O)c1cnc(Nc2cnc(C#N)cn2)cc1NCC1CCNCC1 [Compound Y-086] ?
≤ 100 nM

Record lookup: for CHK1 (Homo sapiens, UniProt O14757), what IC50 belongs to N#Cc1cnc(Nc2cc(NCC3CCNCC3)c(C(=O)Nc3ccc(F)cc3)cn2)cn1 [Compound Y-092] ?
100 to 1000 nM

====

molecular target: CHK1 (Homo sapiens, UniProt O14757); experiment: CHK1 kinase function inhibition assay (DELFIA, phosphorylation of a CDC25C peptide); settings: CHK1 1 nM, ATP 30 μM, 30 minutes at room temperature
readout: IC50

The following molecules have reported results that may help.
1) CN1CCC(N(C)c2cc(Nc3cnc(C#N)cn3)ncc2-c2ccccc2)CC1: 0.1 to 1 µM
2) N#Cc1cnc(Nc2cc(NCC3CCCCN3)c(N)cn2)cn1 (stereo not drawn): 1 to 10 µM
3) N#Cc1cnc(Nc2cc(N3CCNCC3)ncn2)cn1: 1 to 10 µM
4) CN(C)CC(=O)Nc1cnc(Nc2cnc(C#N)cn2)cc1NCC1CCCNC1 (stereo not drawn): 0.1 to 1 µM
5) N#Cc1cnc(Nc2cc(NCCC[C@H](N)C(=O)Nc3ccccc3)c(N)cn2)cn1: 1 to 10 µM

Now turn to the next molecule.
Looking for the measured IC50 of `CCCN1CCC(Nc2cc(Nc3cnc(C#N)cn3)ncc2C(=O)OC)CC1` , can you help?
≤ 0.1 µM

====

Target: CHK1 (Homo sapiens, UniProt O14757)
Assay: CHK1 kinase function inhibition assay (DELFIA, phosphorylation of a CDC25C peptide)
Settings: CHK1 1 nM, ATP 30 μM, 30 minutes at room temperature
Procedure: Measurement of Inhibition of CHK1 Kinase Function CHK1 kinase function was measured in a DELFIA® assay in order to monitor phosphorylation of a CDC25C peptide using a specific phospho antibody. The reaction mixture was incubated for 30 minutes at room temperature and then stopped by the addition of buffer (125 μL) containing 40 mM EDTA, 0.05% Tween 20, 0.1% BSA in TBS (10× concentrate, Sigma). […]
readout: IC50

The following molecules have reported results that may help.
1. CN1CCC(Nc2cc(Nc3cnc(C#N)cn3)ncc2C(=O)O)CC1: 1 to 10 µM
2. N#Cc1cnc(Nc2cc(NC3CCCCC3)c(N)cn2)cn1: 1 to 10 µM
3. CN1C2CCC1CC(Nc1cc(Nc3cnc(C#N)cn3)ncc1N)C2 (stereo not shown): 1 to 10 µM

Looking for the measured IC50 of `N#Cc1cnc(Nc2cc(NCC3CCNCC3)c(C(=O)NCCO)cn2)cn1` , can you help?
0.1 to 1 µM

Looking for the measured IC50 of COC(=O)c1cnc(Nc2cnc(C#N)cn2)cc1NC(C)C1CCNCC1 (stereo not shown) , can you help?
≤ 0.1 µM

Looking for the measured IC50 of CN1C2CCC1CC(Nc1cc(Nc3cnc(C#N)cn3)ncn1)C2 (stereo not shown) , can you help?
≤ 0.1 µM

Looking for the measured IC50 of CCOC(=O)c1ccn(-c2cnc(Nc3cnc(C#N)cn3)cc2NCC2CCCNC2)c1 (stereo not shown) , can you help?
≤ 0.1 µM

Looking for the measured IC50 of `CS(=O)(=O)c1cccc(-c2cnc(Nc3cnc(C#N)cn3)cc2NCC2CCNCC2)c1` , can you help?
0.1 to 1 µM

====

Parameter: pIC50. Scope: all listed entries.
Target: CHK1 (Homo sapiens)
Sequence (O14757 1-476): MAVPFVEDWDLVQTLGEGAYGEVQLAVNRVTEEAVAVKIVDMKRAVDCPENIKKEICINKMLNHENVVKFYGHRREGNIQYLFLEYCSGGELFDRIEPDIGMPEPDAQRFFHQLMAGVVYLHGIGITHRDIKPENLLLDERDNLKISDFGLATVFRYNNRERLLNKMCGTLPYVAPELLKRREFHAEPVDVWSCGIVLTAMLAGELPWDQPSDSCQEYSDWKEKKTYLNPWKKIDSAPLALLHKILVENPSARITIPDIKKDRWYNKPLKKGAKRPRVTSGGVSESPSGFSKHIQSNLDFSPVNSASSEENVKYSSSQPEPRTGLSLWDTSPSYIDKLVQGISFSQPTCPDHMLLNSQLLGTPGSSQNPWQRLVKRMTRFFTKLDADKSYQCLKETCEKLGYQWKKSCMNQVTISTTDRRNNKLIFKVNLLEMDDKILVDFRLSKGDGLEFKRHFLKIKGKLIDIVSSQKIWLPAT
Test: CHK1 kinase function inhibition assay (DELFIA, phosphorylation of a CDC25C peptide)
Details: CHK1 1 nM, ATP 30 μM, 30 minutes at room temperature
pIC50: −log10 of the molar value.

The following compounds have reported results that may help.
1. Cc1ccccc1-c1cnc(Nc2cnc(C#N)cn2)cc1NC1CCN(C)CC1: 6.00 to 7.00
2. COC(=O)c1cnc(Nc2cnc(C)cn2)cc1NC1CCN(C)CC1: ≥ 7.00
3. N#Cc1cnc(Nc2cc(NCC3CCNCC3)c(C(N)=O)cn2)cn1: 6.00 to 7.00
4. COCCOc1ccc(-c2cnc(Nc3cnc(C#N)cn3)cc2NC[C@@H]2CNCCO2)cc1: ≥ 7.00

Now turn to the next compound.
Looking for the measured pIC50 of `N#Cc1cnc(Nc2cc(NCC3CCNCC3)c(C(=O)Nc3ccccc3F)cn2)cn1` , can you help?
6.00 to 7.00

Source listed as patent US8367658B2.
